Please respond with reported combination Emax for every item in the list.
# Test system: PC-3_[JPC-3] (Lung Adenocarcinoma)
# protocol_details: combination Emax (second highest fraction inhibited in the dose matrix, 72 h); higher = more inhibition; extreme values may be limits of the assay
The answer should be written as a number, with no unit following it.

**Q:** Would you please give the reported combination Emax of CN(CCO)CC[C@H](CSc1ccccc1)Nc1ccc(S(=O)(=O)NC(=O)c2ccc(N3CCC([C@@H](O)c4ccccc4-c4ccc(Cl)cc4)CC3)cc2)cc1S(=O)(=O)C(F)(F)F [AZD4320] + C[C@@H](Nc1cc(F)cc(F)c1)c1cc(C(=O)N(C)C)cc2c(=O)cc(N3CCOCC3)oc12 [AZD8186] (first compound max 1 µM, 7x7, partner max 3 µM) with PC-3_[JPC-3] (Lung Adenocarcinoma)?
**A:** 0.562

**Q:** Would you please give the reported combination Emax of COc1nnc2ccc(N3CCC(c4ccc(OCCN5CCN(C)C(=O)[C@H]5C)cc4)CC3)nn12 [AZD5153] + C[C@@H]1COCCN1C2=NC(=NC(=C2)C3(CC3)[S@](=N)(=O)C)C4=C5C=CNC5=NC=C4 [AZD6738] (first compound max 1 µM, 7x7, partner max 10 µM) with PC-3_[JPC-3] (Lung Adenocarcinoma)?
**A:** 0.5

###

Please respond with reported Bliss excess for every item in the list.
# Tested on: A2058 (Melanoma)
# protocol_details: Bliss excess, mean over the matrix (fraction); higher = more synergy
The answer should be written as a number, with no unit following it.

**Q:** // Input: Cc1c2c(nn1C)CSCc1cc(n(C)n1)CSc1cc(c3ccccc3c1)OCCCc1c(C(=O)O)n(C)c3c-2c(Cl)ccc13 [AZD5991] + C1CN(CCC1(C(=O)N[C@@H](CCO)C2=CC=C(C=C2)Cl)N)C3=NC=NC4=C3C=CN4 [Capivasertib] (first compound max 1 µM, 7x7, partner max 3 µM) . Output its Bliss excess only.
**A:** 0.0972

**Q:** // Input: Cc1c2c(nn1C)CSCc1cc(n(C)n1)CSc1cc(c3ccccc3c1)OCCCc1c(C(=O)O)n(C)c3c-2c(Cl)ccc13 [AZD5991] + CN(C)CCCOc1ccc(-c2ccc3ncc4c(c3c2)n(C2CCOCC2)c(=O)n4C)cn1 [AZD0156] (first compound max 1 µM, 7x7, partner max 1 µM) . Output its Bliss excess only.
**A:** -0.0048

**Q:** // Input: CC1(C)CCC(CN2CCN(c3ccc(C(=O)NS(=O)(=O)c4ccc(NCC5CCOCC5)c([N+](=O)[O-])c4)c(Oc4cnc5[nH]ccc5c4)c3)CC2)=C(c2ccc(Cl)cc2)C1 [Venetoclax] + C=CCn1c(=O)c2cnc(Nc3ccc(N4CCN(C)CC4)cc3)nc2n1-c1cccc(C(C)(C)O)n1 [AZD1775] (first compound max 1 µM, partner max 1 µM) . Output its Bliss excess only.
**A:** -0.0886

###

# Tested on: SF268 (Low Grade Glioma)
# protocol_details: Bliss excess, mean over the matrix (fraction); higher = more synergy
quantity_measured: Bliss excess
The answer should be written as a number, with no unit following it.

**Q:** Would you please give the reported Bliss excess of COc1nnc2ccc(N3CCC(c4ccc(OCCN5CCN(C)C(=O)[C@H]5C)cc4)CC3)nn12 [AZD5153] + Cc1c2c(nn1C)CSCc1cc(n(C)n1)CSc1cc(c3ccccc3c1)OCCCc1c(C(=O)O)n(C)c3c-2c(Cl)ccc13 [AZD5991] (first compound max 1 µM, 7x7, partner max 1 µM) with SF268 (Low Grade Glioma)?
**A:** 0.0097

**Q:** Would you please give the reported Bliss excess of COc1nnc2ccc(N3CCC(c4ccc(OCCN5CCN(C)C(=O)[C@H]5C)cc4)CC3)nn12 [AZD5153] + Cn1cnc2c(F)c(Nc3ccc(Br)cc3Cl)c(C(=O)NOCCO)cc21 [Selumetinib] (first compound max 1 µM, 7x7, partner max 10 µM) with SF268 (Low Grade Glioma)?
**A:** -0.0504

**Q:** Would you please give the reported Bliss excess of COc1nnc2ccc(N3CCC(c4ccc(OCCN5CCN(C)C(=O)[C@H]5C)cc4)CC3)nn12 [AZD5153] + CC1(C)CCC(CN2CCN(c3ccc(C(=O)NS(=O)(=O)c4ccc(NCC5CCOCC5)c([N+](=O)[O-])c4)c(Oc4cnc5[nH]ccc5c4)c3)CC2)=C(c2ccc(Cl)cc2)C1 [Venetoclax] (first compound max 1 µM, 7x7, partner max 1 µM) with SF268 (Low Grade Glioma)?
**A:** -0.128
